# MEASUREMENT_PROTOCOL: endothelial E-selectin expression blockers – imaging, HUVEC, immunofluorescence, MLSMR starter and 10KST1 sets, primary screen (AID 487);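 further: signal is fraction of cell area covered by stained E-selectin grains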
# PARTICULARS: HUVEC TNFalpha-induced E-selectin immunofluorescence imaging, at 2 µM; hits give high values
Answer each item with its documented inhibition.
Answers are plain numbers, in %.

Answered examples (8):
{"COMPOUND": "CC1=C(C(=O)OC(C)C)C(c2cccc(F)c2)n2ncnc2N1 (stereo unspecified)", "REPORTED_MEASUREMENT": -76.3}
{"COMPOUND": "Cc1nn(Cc2ccccc2Cl)c(C)c1NC(=O)C1C2CCC(O2)C1C(=O)O (stereo unspecified)", "REPORTED_MEASUREMENT": 16.3}
{"COMPOUND": "COc1ccc(N(CC(=O)N2CCCCC2)S(=O)(=O)c2ccccc2)c(OC)c1", "REPORTED_MEASUREMENT": -218}
{"COMPOUND": "O=C(Nc1ccccc1)N(Cc1cccnc1)Cc1ccco1", "REPORTED_MEASUREMENT": -36.9}
{"COMPOUND": "COC(=O)C(C)Sc1nc2c(c(=O)n(C)c(=O)n2C)n1Cc1cccc(C)c1 (stereo unspecified)", "REPORTED_MEASUREMENT": -27.3}
{"COMPOUND": "COCCn1c(=O)[nH]c2cc(C(=O)N3CCN(Cc4ccc5c(c4)OCO5)CC3)ccc2c1=O", "REPORTED_MEASUREMENT": -20.8}
{"COMPOUND": "CC1Cc2ccccc2N1CC(=O)NC(=O)NCc1ccco1 (stereo unspecified)", "REPORTED_MEASUREMENT": 2.3}
{"COMPOUND": "O=C(CSc1nc2ccccc2nc1SCC(=O)N1CCOCC1)N1CCOCC1", "REPORTED_MEASUREMENT": -239}

Hey, quick one: what's inhibition for each of these?
1. NC(=O)C1CCN(CC(=O)N2c3ccccc3CCc3ccccc32)CC1
2. O=C(Nc1ccccc1Cl)c1c(F)c(F)c(F)c(F)c1F
3. CCc1nnc(NC(=O)CSc2nnc(-c3ccoc3C)n2CC(C)C)s1

Output line:
-20.9
-166
15.4

---

# MEASUREMENT_PROTOCOL: inhibitors of TNFa-induced NFkB p65 translocation, primary screen, imaging, HUVEC, MLSMR starter and 10KST1 sets (AID 438);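 further: compound added about 3h40 before a 20 min TNFalpha stimulation; signal is the nuclear over cytoplasmic p65 intensity ratio per well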
# PARTICULARS: HUVEC TNFa-induced p65 nuclear translocation; at 2 µM, hits give high values, 0% TNFa-plus-vehicle, 100% no-TNFa wells
MEASUREMENT_TYPE: inhibition (%)
Numbers only, in %.

Answered examples (10):
{"MOLECULE": "O=C1CCC(C(=O)N(Cc2ccco2)C2(C(=O)NC3CCCC3)CCCCC2)N1 (stereo unspecified)", "REPORTED_MEASUREMENT": -6.8}
{"MOLECULE": "Cc1nc(Nc2nc(=O)c3ccccc3n2C)nc2c(C)cccc12", "REPORTED_MEASUREMENT": 5.2}
{"MOLECULE": "CCCn1c(SCC(=O)NCCc2ccccc2)nnc1-c1ccccn1", "REPORTED_MEASUREMENT": -7.9}
{"MOLECULE": "Cc1cc(S(=O)(=O)N(Cc2ccccc2)Cc2ccc(N(C)C)cc2)ccc1-n1cnnn1", "REPORTED_MEASUREMENT": 3.3}
{"MOLECULE": "CCCN1CCN(C(=O)Cn2cccc2C(=O)c2ccccc2)CC1", "REPORTED_MEASUREMENT": 5.4}
{"MOLECULE": "CCCCOc1ccc(-c2nnn(C(C)(C)C(=O)OC)n2)cc1", "REPORTED_MEASUREMENT": -6.3}
{"MOLECULE": "COc1ccccc1-c1nnc(SCC(=O)N2CC(C)CC(C)C2)o1 (stereo unspecified)", "REPORTED_MEASUREMENT": 11.1}
{"MOLECULE": "CC(=O)N1CCc2cc(S(=O)(=O)NCCC3=CCCCC3)ccc21", "REPORTED_MEASUREMENT": 3.5}
{"MOLECULE": "CCC1(C)Cc2c(sc3nc(SCC(=O)O)[nH]c(=O)c23)CO1 (stereo unspecified)", "REPORTED_MEASUREMENT": -14.6}
{"MOLECULE": "CCOC(=O)c1c(C)oc2ccc(OCC(=O)N(CC)CC)cc12", "REPORTED_MEASUREMENT": -1.7}

Then this molecule:
Measured inhibition of `CN1CCN(S(=O)(=O)c2ccc(NC(=O)Nc3cccc(Cl)c3)cc2)CC1` : 0.3

---

# MEASUREMENT_PROTOCOL: TLR3 IRF3 reporter activation blockers – cell-based, poly I:C stimulus, luciferase, 10K MLSCN set, primary screen (AID 602277)
# PARTICULARS: HEK293-TLR3 RL24 IRF3 luciferase reporter, at 10 µM, hits give high values
Tag: criterion met if measured inhibition is not below 20%, criterion not met if it is.

Please review the entries below; each comes with its answer.
{"COMPOUND": "COc1cccc(OC)c1C(=O)n1nc(C)cc1C", "ASSIGNED_CATEGORY": "criterion not met"}
{"COMPOUND": "Cn1c(=O)oc2cc(S(=O)(=O)N3CCCC(C(=O)NCC4COc5ccccc5O4)C3)ccc21 (stereo unspecified)", "ASSIGNED_CATEGORY": "criterion not met"}

Input line: Confirm if inhibition reported for the compound COc1ccccc1C(=O)NC(C)C(c1cccs1)N1CCN(C)CC1 (stereo unspecified) is 20% or above.
Output line: criterion not met

Input line: Confirm if inhibition reported for the compound CCOC(=O)C1CCCN(C(=O)c2ccc3c(=O)n(CCOC)c(=S)[nH]c3c2)C1 (stereo unspecified) is 20% or above.
Output line: criterion not met

Input line: Confirm if inhibition reported for the compound OC(CN1CCCCC1)Cn1c(C(F)(F)F)nc2ccccc21 (stereo unspecified) is 20% or above.
Output line: criterion met

---

# MEASUREMENT_PROTOCOL: reduction of polyQ htt aggregates in cells – imaging, exon1htt(103Q)mCFP cells, high-content imaging, primary screen (AID 483);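 further: compound exposure lasted 3 days before fixation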
# PARTICULARS: exon1htt(103Q)mCFP cell line, aggregate imaging, at 2 µM; hits give high values
MEASUREMENT_TYPE: inhibition of aggregation (%)
Answers are plain numbers, in %.

Answered examples (5):
{"COMPOUND": "Cc1ccc(C)n1-c1ccc(-n2cnnn2)cc1", "MEASUREMENT_TYPE": "inhibition of aggregation", "REPORTED_MEASUREMENT": -8.3}
{"COMPOUND": "COc1ccc(C2C(C#N)=C(C)NC3=C2C(=O)CC(C)(C)C3)c(OC)c1 (stereo unspecified)", "MEASUREMENT_TYPE": "inhibition of aggregation", "REPORTED_MEASUREMENT": 19.6}
{"COMPOUND": "COCCN(CCOC)C(=O)c1sc2nc(-c3ccccc3)cn2c1C", "MEASUREMENT_TYPE": "inhibition of aggregation", "REPORTED_MEASUREMENT": -5.6}
{"COMPOUND": "CC(C)CC(c1nnnn1C(C)(C)C)N1CCN(C2CCCC2)CC1 (stereo unspecified)", "MEASUREMENT_TYPE": "inhibition of aggregation", "REPORTED_MEASUREMENT": -11.7}
{"COMPOUND": "Cc1nnc(SCCCn2c(N3CCCCC3)nc3c2c(=O)[nH]c(=O)n3C)s1", "MEASUREMENT_TYPE": "inhibition of aggregation", "REPORTED_MEASUREMENT": -17.5}

Hey, quick one: what's inhibition of aggregation for each of these?
1. CC(C)(C)n1ncc2c(=O)n(CC(=O)NCc3ccccc3)cnc21
2. CCOC(=O)C1CCN(C(=O)Nc2ccc3nc(C)c(C)nc3c2)CC1
3. Cc1cc(=O)oc2cc(OCC(=O)OCc3nnc(-c4ccccc4)o3)ccc12
4. CCC(C)N=C1SCC(C)(/C=N/O)S1 (stereo unspecified)
5. CN(C)c1cccc(NC(=O)CCc2ccccc2)c1
6. CCOc1cc(C(=O)NCC2CCCO2)cc(OCC)c1OCC (stereo unspecified)

Output line:
[0.5, 26.1, 5.8, 16.5, -5.3, -3.9]

---

Answer each item with its documented inhibition of aggregation.
# MEASUREMENT_PROTOCOL: reduction of polyQ htt aggregates in cells – imaging, exon1htt(103Q)mCFP cells, high-content imaging, primary screen (AID 483);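 further: compound exposure lasted 3 days before fixation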
# PARTICULARS: exon1htt(103Q)mCFP cell line, aggregate imaging, at 2 µM; hits give high values
Give bare numbers, in %.

Answered examples (4):
{"COMPOUND": "O=C(O)C1CCCCC1C(=O)Nc1ccccn1 (stereo not given)", "inhibition of aggregation [%]": -2.7}
{"COMPOUND": "CCOC(=O)CN1CC23C=CC(O2)C(C(=O)NCc2ccc(F)cc2)C3C1=O (stereo not given)", "inhibition of aggregation [%]": 15.7}
{"COMPOUND": "COCCN(CC(=O)Nc1ccccc1C)S(=O)(=O)c1ccc(S(=O)(=O)N2CCCC2)cc1", "inhibition of aggregation [%]": -6.7}
{"COMPOUND": "C=CCn1c(COc2ccc(CC)cc2)nnc1SC/C(O)=C(\\C#N)c1nc2ccccc2[nH]1", "inhibition of aggregation [%]": 3.6}

Measured inhibition of aggregation of CC1=C(C(=O)N2CCOCC2)C(c2ccsc2)C2=C(CCCC2=O)N1 (stereo not given) : 2.7
